biological target: GST-human TopBP1 BRCT5 S654A (human, UniProt Q92547 641-746, S654A); experiment: fluorescence polarisation
Sequence (Q92547 641-746 S654A): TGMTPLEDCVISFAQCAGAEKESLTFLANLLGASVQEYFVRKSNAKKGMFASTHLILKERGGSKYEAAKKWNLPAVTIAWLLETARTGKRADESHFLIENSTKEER
Square brackets hold non-standard residues; d marks the D form. * marks the point of attachment. FITC = O=C1OC2(c3ccc(O)cc3Oc3cc(O)ccc32)c2ccc(NC(=S)*)cc21; pS = N[C@@H](COP(=O)(O)O)C(=O)O
Measurement label: Kd (µM)
Give the value, in units of µM, as a plain number.

Problem: Please look up its Kd: {FITC}-DTDFVPP[pS]PEEII-NH2 [FITC-labelled BLM pSer304 peptide (FITC-DTDFVPPpSPEEII-NH2)]
Solution: 33
